# assayProcedure: Inhibitory activity against phospholipase C isolated from human melanoma
Sorting guide: entries reporting IC50 beneath 7 µg/mL go in the true pile, the rest go in the false pile.

Consider the following illustrative entries.
{"compound": "COc1cccc(NC2Oc3ccccc3C=C2[N+](=O)[O-])c1 (configuration not stated)", "labelClass": "true"}
{"compound": "COc1ccc2oc(=O)c([N+](=O)[O-])cc2c1", "labelClass": "false"}
{"compound": "O=[N+]([O-])C1=Cc2ccccc2OC1Nc1ccccc1[N+](=O)[O-] (configuration not stated)", "labelClass": "true"}

Hi there! Is IC50 for "O=c1oc2ccc(O)cc2cc1[N+](=O)[O-]" below 7 µg/mL, do you know?
false

Hi there! Is IC50 for "CCCCCCCC(=O)Oc1ccc2oc(=O)c([N+](=O)[O-])cc2c1" below 7 µg/mL, do you know?
true

Hi there! Is IC50 for "C=CCCCCCCCCC(=O)Oc1ccc2oc(=O)c([N+](=O)[O-])cc2c1" below 7 µg/mL, do you know?
true

Hi there! Is IC50 for "O=c1oc2ccc(OCCCCCCCCO)cc2cc1[N+](=O)[O-]" below 7 µg/mL, do you know?
false
